Would you kindly list yeast fitness for each of these variants?
B1: tRNA (parent)
chain: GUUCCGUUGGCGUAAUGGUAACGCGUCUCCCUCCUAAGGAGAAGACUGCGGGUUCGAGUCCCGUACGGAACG

Variants of: B1
Assay: yeast fitness relative to wild type (ratio to wild type); higher = fitter; tRNA-Arg(CCU), competitive growth, 37 C, YPD
Variants at the floor of the assay were thinned out.

## Task Record request: yeast fitness value, item C11U U32A A70C
## Result 0.614

## Task Param item: G6C A15G C22A C29G A37C G50C C66U
## Result ≤ 0.5

## Task Input U8C A21U C34A A40C G67A
## Result ≤ 0.5

## Task What would you report for U3C C24A C66U ?
## Result ≤ 0.5
